Biological target: T1, Human BCMA (human, UniProt Q02223 1-54, limits assumed)
T1 construct: also called huBCMA; B-cell maturation antigen
T1 sequence (looked up): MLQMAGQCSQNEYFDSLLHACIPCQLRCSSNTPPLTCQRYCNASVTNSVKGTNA
Assay: SPR, IgG immobilised, human BCMA analyte
Consider the following binders and their measured kon readings.

{"BINDER": "COMBO_Rd4_0.6nM_C02 (antibody, V domains shown, IgG) VH: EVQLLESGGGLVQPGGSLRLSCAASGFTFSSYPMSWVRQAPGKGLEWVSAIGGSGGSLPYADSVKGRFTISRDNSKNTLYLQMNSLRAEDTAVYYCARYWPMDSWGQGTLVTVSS VL: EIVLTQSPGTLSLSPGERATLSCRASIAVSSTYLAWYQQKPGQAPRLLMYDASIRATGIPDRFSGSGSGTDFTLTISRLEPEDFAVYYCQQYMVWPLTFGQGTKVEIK", "kon / M⁻¹ s⁻¹": "8.57e+06"}
{"BINDER": "C01_Rd4_6nM_C04 (antibody, V domains shown, IgG) VH: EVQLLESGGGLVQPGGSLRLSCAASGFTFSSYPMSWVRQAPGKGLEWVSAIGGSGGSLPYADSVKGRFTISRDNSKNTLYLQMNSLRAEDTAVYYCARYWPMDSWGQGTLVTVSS VL: EIVLTQSPGTLSLSPGERATLSCCSSQSVSSTYLAWYQQKPGQAPRLLIYDASSRAPGIPDRFSGSGSGTDFTLTISRLEPEDFAVYYCQQYSAFPLTFGQGTKVEIK", "kon / M⁻¹ s⁻¹": "2.33e+07"}
